Test system: corn
Assay: Test A pre-/postemergence greenhouse test
Format: in vivo, Zea mays
Conditions: Postemergence, 125 g ai/ha; 0 to 100 scale, 0 is no effect, 100 is complete control
# Corn plant response rating annotations
Enter a number only.

Please review the entries below; each comes with its answer.
compound: Cn1nc(C(F)(F)F)c(C[S+]([O-])c2cccc[n+]2[O-])c1OCC(F)(F)F (racemic) [Compound 28]
Corn plant response rating: 60
--
compound: Cn1nc(C(F)(F)F)c(CS(=O)(=O)c2cccc[n+]2[O-])c1OC(F)F [Compound 4]
Corn plant response rating: 30
--
compound: Cn1nc(C(F)(F)F)c(CS(=O)(=O)c2cccc[n+]2[O-])c1OCC(F)(F)F [Compound 29]
Corn plant response rating: 30

Here's the next entry for you.
Query string: Record Cc1cc[n+]([O-])c(S(=O)(=O)Cc2c(C(F)(F)F)nn(C)c2Cl)c1 [Compound 19] : what is its Corn plant response rating with corn?
Result string: 0

These entries and their values trace back to patent US20100298141A1.
